- target of assay: hMATE1 (Homo sapiens, UniProt Q96FL8)
- Construct: expressed in transfected cells
- experimental protocol: Inhibition of hMATE1-mediated substrate uptake in transfected HEK293 cells (pH 8.0)
- Format: in vitro ADME
- run parameters: IC50, hMATE1-mediated [14C]metformin uptake, Preincubation, 30-min preincubation with inhibitor at 37 °C; 8.9 µM [14C]metformin; 2 min uptake
pIC50: −log10 of the molar value.
result type: pIC50

[[record]]
chemical_smiles = "COc1cc(N2CCC(N3CCN(C)CC3)CC2)ccc1Nc1ncc(Cl)c(Nc2ccccc2P(C)(C)=O)n1"
recorded_number = 6.01


====

- target of assay: hOCT3 (Homo sapiens, UniProt O75751)
- Construct: expressed in transfected cells
- Sequence (O75751 whole entry): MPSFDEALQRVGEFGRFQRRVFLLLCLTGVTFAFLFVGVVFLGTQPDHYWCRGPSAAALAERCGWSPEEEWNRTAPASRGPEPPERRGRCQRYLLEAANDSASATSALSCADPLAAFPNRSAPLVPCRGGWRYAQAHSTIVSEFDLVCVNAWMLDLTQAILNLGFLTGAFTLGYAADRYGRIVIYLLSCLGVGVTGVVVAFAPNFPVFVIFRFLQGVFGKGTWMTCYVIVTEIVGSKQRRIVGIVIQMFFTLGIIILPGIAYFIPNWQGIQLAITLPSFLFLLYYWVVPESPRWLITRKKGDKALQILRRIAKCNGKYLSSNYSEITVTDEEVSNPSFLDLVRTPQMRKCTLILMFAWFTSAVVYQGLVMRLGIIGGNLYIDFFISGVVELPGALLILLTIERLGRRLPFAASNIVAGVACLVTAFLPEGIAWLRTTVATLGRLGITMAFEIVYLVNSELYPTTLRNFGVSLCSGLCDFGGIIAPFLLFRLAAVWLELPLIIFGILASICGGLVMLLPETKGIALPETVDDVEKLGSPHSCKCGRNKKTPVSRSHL
- experimental protocol: Inhibition of hOCT3-mediated substrate uptake in transfected HEK293 cells
- Format: in vitro ADME
- run parameters: substrate 1 µM [3H]MPP+; HEK293; 2 min, 37 °C; mean ± SD; read-out: IC50, hOCT3-mediated MPP+ uptake
pIC50: −log10 of the molar value.
result type: pIC50

[[record]]
chemical_smiles = "COc1cc(N2CCC(N3CCN(C)CC3)CC2)ccc1Nc1ncc(Cl)c(Nc2ccccc2P(C)(C)=O)n1"
recorded_number = 5.60


====

- target of assay: hOCT2 (Homo sapiens)
- experimental protocol: Inhibition of hOCT2-mediated substrate uptake in transfected HEK293 cells
- Format: in vitro ADME
- Design: expressed in transfected cells
- run parameters: substrate 1 µM mIBG; HEK293; 2 min, 37 °C; mean ± SD; read-out: IC50, hOCT2-mediated mIBG uptake
pIC50: −log10 of the molar value.
result type: pIC50

[[record]]
compound = "COc1cc(N2CCC(N3CCN(C)CC3)CC2)ccc1Nc1ncc(Cl)c(Nc2ccccc2P(C)(C)=O)n1 [Brigatinib]"
result = "< 4.00"


====

- target of assay: hMATE2-K (Homo sapiens)
- Construct: expressed in transfected cells
- Sequence (Q86VL8 1-566 isoform Q86VL8-3): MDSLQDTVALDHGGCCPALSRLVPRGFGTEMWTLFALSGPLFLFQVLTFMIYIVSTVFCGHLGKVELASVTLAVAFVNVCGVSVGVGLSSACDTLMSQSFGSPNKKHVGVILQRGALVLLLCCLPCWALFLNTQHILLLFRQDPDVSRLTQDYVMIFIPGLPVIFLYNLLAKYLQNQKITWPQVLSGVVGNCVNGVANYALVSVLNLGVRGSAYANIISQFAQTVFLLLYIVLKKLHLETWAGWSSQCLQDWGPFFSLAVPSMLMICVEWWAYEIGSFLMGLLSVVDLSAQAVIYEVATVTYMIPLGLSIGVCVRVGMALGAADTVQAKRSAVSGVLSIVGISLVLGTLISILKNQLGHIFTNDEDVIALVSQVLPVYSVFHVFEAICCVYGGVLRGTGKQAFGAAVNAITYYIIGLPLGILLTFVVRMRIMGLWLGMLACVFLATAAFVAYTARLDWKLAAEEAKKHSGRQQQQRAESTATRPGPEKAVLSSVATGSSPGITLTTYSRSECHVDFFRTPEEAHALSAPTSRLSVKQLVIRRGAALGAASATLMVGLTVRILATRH
- experimental protocol: Inhibition of hMATE2-K-mediated substrate uptake in transfected HEK293 cells (pH 8.0)
- Type: in vitro ADME
- run parameters: substrate 8.9 µM [14C]metformin; HEK293; 2 min, 37 °C; mean ± SD; read-out: IC50, hMATE2-K-mediated metformin uptake
pIC50: −log10 of the molar value.
result type: pIC50

[[record]]
molecule = "COc1cc(N2CCC(N3CCN(C)CC3)CC2)ccc1Nc1ncc(Cl)c(Nc2ccccc2P(C)(C)=O)n1 [Brigatinib]"
recorded_number = 4.42


====

- target of assay: hOCT1 (Homo sapiens, UniProt O15245)
- Construct: expressed in transfected cells
- Sequence (O15245 whole entry): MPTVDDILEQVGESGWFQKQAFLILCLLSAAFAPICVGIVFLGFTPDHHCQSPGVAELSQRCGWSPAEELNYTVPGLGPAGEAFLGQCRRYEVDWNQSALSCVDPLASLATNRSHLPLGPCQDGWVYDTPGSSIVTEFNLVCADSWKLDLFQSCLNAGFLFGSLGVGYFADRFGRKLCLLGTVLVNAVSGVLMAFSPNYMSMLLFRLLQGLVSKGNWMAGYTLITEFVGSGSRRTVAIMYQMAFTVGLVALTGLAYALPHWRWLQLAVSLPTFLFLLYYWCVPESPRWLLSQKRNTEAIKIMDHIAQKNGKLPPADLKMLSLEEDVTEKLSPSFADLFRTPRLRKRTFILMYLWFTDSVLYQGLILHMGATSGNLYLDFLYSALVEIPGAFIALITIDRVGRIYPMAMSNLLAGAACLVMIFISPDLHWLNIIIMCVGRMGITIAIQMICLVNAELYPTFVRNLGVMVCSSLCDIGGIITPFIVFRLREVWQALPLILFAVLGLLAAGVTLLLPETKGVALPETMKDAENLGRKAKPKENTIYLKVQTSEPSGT
- experimental protocol: Inhibition of hOCT1-mediated substrate uptake in transfected HEK293 cells
- Assay type: in vitro ADME
- run parameters: substrate 1 µM [3H]MPP+; HEK293; 2 min, 37 °C; mean ± SD; read-out: IC50, hOCT1-mediated MPP+ uptake
result type: IC50

[[record]]
chemical_smiles = "COc1cc(N2CCC(N3CCN(C)CC3)CC2)ccc1Nc1ncc(Cl)c(Nc2ccccc2P(C)(C)=O)n1"
result_type = "IC50"
result = "25.1 µM"


====

- target of assay: hMATE1 (Homo sapiens, UniProt Q96FL8)
- Construct: expressed in transfected cells
- experimental protocol: Inhibition of hMATE1-mediated substrate uptake in transfected HEK293 cells (pH 8.0)
- Type: in vitro ADME
- run parameters: IC50, hMATE1-mediated [14C]metformin uptake, Coincubation, coincubation (no preincubation), preincubation study; 8.9 µM [14C]metformin; 2 min uptake
pIC50: −log10 of the molar value.
result type: pIC50

[[record]]
molecule = "COc1cc(N2CCC(N3CCN(C)CC3)CC2)ccc1Nc1ncc(Cl)c(Nc2ccccc2P(C)(C)=O)n1 [Brigatinib]"
recorded_number = 5.85


====

- target of assay: hOCT2 (Homo sapiens, UniProt O15244)
- experimental protocol: Inhibition of hOCT2-mediated substrate uptake in transfected HEK293 cells
- Type: in vitro ADME
- Parameters: expressed in transfected cells
- run parameters: substrate 8.9 µM [14C]metformin; HEK293; 2 min, 37 °C; mean ± SD; read-out: IC50, hOCT2-mediated metformin uptake
result type: IC50 (µM)

[[record]]
chemical_smiles = "COc1cc(N2CCC(N3CCN(C)CC3)CC2)ccc1Nc1ncc(Cl)c(Nc2ccccc2P(C)(C)=O)n1"
result_type = "IC50"
unit_string = "µM"
recorded_number = 30.2


====

- target of assay: hMATE2-K (Homo sapiens)
- Construct: expressed in transfected cells
- experimental protocol: Inhibition of hMATE2-K-mediated substrate uptake in transfected HEK293 cells (pH 8.0)
- Format: in vitro ADME
- run parameters: substrate 1 µM [3H]MPP+; HEK293; 2 min, 37 °C; mean ± SD; read-out: IC50, hMATE2-K-mediated MPP+ uptake
result type: IC50

[[record]]
compound = "COc1cc(N2CCC(N3CCN(C)CC3)CC2)ccc1Nc1ncc(Cl)c(Nc2ccccc2P(C)(C)=O)n1 [Brigatinib]"
result = "> 300 µM"


====

- target of assay: hOCT1 (Homo sapiens)
- Construct: expressed in transfected cells
- experimental protocol: Inhibition of hOCT1-mediated substrate uptake in transfected HEK293 cells
- Type: in vitro ADME
result type: IC50 (nM)

[[record]]
molecule = "COc1cc(N2CCC(N3CCN(C)CC3)CC2)ccc1Nc1ncc(Cl)c(Nc2ccccc2P(C)(C)=O)n1 [Brigatinib]"
result_type = "IC50"
unit_string = "nM"
recorded_number = 1120


====

- target of assay: hOCT3 (Homo sapiens)
- Construct: expressed in transfected cells
- experimental protocol: Inhibition of hOCT3-mediated substrate uptake in transfected HEK293 cells
- Format: in vitro ADME
result type: IC50 (nM)

[[record]]
chemical_smiles = "COc1cc(N2CCC(N3CCN(C)CC3)CC2)ccc1Nc1ncc(Cl)c(Nc2ccccc2P(C)(C)=O)n1"
unit_string = "nM"
recorded_number = 850


====

- target of assay: hMATE1 (Homo sapiens, UniProt Q96FL8)
- Construct: expressed in transfected cells
- Sequence (Q96FL8 1-570): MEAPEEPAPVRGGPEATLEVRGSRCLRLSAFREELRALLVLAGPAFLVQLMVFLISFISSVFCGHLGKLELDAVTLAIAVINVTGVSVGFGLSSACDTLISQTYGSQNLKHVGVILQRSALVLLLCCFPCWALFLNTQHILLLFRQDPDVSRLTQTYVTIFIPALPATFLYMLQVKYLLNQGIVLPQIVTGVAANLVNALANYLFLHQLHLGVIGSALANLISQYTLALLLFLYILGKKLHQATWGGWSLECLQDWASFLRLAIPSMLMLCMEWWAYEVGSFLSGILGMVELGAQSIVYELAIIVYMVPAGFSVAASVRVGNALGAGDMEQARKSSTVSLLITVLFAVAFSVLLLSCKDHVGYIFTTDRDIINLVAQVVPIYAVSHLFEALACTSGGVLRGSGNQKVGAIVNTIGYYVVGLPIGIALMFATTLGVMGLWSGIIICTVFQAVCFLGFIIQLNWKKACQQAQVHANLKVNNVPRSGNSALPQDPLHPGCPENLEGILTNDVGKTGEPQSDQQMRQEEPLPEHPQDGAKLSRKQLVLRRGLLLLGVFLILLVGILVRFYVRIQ
- experimental protocol: Inhibition of hMATE1-mediated substrate uptake in transfected HEK293 cells (pH 8.0)
- Assay type: in vitro ADME
- run parameters: IC50, hMATE1-mediated metformin uptake, substrate 8.9 µM [14C]metformin; HEK293; 2 min, 37 °C; mean ± SD
pIC50: −log10 of the molar value.
result type: pIC50

[[record]]
chemical_smiles = "COc1cc(N2CCC(N3CCN(C)CC3)CC2)ccc1Nc1ncc(Cl)c(Nc2ccccc2P(C)(C)=O)n1"
recorded_number = 5.78


====

- target of assay: hOCT2 (Homo sapiens, UniProt O15244)
- Sequence (O15244 1-555): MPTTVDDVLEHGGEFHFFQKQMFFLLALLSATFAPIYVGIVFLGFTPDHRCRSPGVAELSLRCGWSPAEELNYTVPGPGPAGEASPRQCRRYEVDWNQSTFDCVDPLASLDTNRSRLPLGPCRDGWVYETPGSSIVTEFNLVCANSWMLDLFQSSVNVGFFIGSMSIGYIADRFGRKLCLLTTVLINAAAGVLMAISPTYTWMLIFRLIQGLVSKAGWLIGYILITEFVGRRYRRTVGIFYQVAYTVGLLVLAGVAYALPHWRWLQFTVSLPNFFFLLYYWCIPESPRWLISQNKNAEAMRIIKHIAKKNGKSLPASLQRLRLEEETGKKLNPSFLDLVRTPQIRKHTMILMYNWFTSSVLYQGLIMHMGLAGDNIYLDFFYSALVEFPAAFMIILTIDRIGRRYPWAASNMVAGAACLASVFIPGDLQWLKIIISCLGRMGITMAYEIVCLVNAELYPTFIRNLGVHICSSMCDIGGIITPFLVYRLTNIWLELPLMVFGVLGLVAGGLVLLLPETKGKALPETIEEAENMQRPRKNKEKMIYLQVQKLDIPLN
- experimental protocol: Inhibition of hOCT2-mediated substrate uptake in transfected HEK293 cells
- Assay type: in vitro ADME
- Design: expressed in transfected cells
- run parameters: substrate 1 µM [3H]MPP+; HEK293; 2 min, 37 °C; mean ± SD; read-out: IC50, hOCT2-mediated MPP+ uptake
result type: IC50

[[record]]
chemical_smiles = "COc1cc(N2CCC(N3CCN(C)CC3)CC2)ccc1Nc1ncc(Cl)c(Nc2ccccc2P(C)(C)=O)n1"
result = "> 300 µM"

